Catalogue of pIC50 values
biological target: EGFR TMLRCS (Homo sapiens, UniProt P00533, C797S/L858R/T790M); test: HTRF Phospho EGFR TMLRCS Assay (Cellular); conditions: BaF3-TMLRCS cell line, 4 hours incubation, Phospho-EGFR HTRF readout
Sequence (P00533 25-1210 T790M/C797S/L858R): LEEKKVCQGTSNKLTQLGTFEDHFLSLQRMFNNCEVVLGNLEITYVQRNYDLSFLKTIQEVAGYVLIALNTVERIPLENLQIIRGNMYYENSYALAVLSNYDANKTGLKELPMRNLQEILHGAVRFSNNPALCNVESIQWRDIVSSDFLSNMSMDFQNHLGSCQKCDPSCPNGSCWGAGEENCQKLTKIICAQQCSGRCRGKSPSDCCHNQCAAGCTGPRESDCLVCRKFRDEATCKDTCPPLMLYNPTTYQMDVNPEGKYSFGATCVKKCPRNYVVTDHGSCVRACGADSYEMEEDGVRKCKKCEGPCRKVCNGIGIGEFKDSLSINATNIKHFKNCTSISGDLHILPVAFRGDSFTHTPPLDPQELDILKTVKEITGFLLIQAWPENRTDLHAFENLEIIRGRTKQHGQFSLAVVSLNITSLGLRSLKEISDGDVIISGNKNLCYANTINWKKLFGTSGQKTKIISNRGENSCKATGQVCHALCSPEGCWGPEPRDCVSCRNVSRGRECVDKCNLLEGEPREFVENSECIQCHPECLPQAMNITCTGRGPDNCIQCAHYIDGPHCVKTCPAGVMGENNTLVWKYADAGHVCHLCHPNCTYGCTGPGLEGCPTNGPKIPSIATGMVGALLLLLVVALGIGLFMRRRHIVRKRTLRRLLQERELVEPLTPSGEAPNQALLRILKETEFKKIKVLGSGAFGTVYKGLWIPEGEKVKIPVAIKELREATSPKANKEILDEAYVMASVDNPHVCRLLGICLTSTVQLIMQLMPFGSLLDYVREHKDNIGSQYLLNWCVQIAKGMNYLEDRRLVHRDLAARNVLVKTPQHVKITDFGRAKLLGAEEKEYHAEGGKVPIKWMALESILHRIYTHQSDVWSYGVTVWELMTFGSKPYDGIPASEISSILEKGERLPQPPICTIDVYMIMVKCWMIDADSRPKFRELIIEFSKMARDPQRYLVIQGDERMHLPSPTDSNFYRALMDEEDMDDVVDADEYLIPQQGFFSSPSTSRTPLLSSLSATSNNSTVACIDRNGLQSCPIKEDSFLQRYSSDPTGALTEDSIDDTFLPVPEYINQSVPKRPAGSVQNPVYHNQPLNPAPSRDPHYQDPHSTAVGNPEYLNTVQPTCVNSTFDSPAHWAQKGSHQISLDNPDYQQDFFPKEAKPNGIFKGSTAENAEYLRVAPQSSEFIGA
pIC50: −log10 of the molar value. Where a name gives a salt, the structure may show the parent alone.

{"molecule": "O=C(Nc1nccs1)C(c1ncn2c1C[C@@H](F)C2)n1cc2c(Cl)cc(-c3ccc(OCCN4CCC(CO)CC4)cc3)c(Cl)c2n1 (mixture of isomers)", "pIC50": 8.40}
{"molecule": "O=C(Nc1nccs1)C(c1ncn2c1C[C@@H](F)C2)n1cc2c(Cl)cc(-c3ccc(C4CCNCC4)cc3)c(Cl)c2n1 (mixture of isomers) [Example 30, hydrochloride]", "pIC50": 7.48}
{"molecule": "O=C(Nc1nccs1)C(c1ncn2c1C[C@@H](F)C2)n1cc2c(Cl)cc(-c3ccc(OCCN4CC5(CC(O)C5)C4)cc3)c(Cl)c2n1 (stereo partly drawn)", "pIC50": 8.15}
{"molecule": "CCN1CC2(CCCN(c3ccc(-c4cc(Cl)c5cn(C(C(=O)Nc6nccs6)c6ncn7c6C[C@@H](F)C7)nc5c4Cl)cc3)C2)C1 (stereo partly drawn)", "pIC50": 7.96}
{"molecule": "CC(O)CN1CCN(c2ccc(-c3cc(Cl)c4cn(C(C(=O)Nc5nccs5)c5ncn6c5C[C@@H](F)C6)nc4c3Cl)cc2)CC1 (mixture of isomers)", "pIC50": 8.10}
{"molecule": "CCN1CCN(c2ccc(-c3cc(C)c4cn(C(C(=O)Nc5nccs5)c5ncn6c5C[C@@H](F)C6)nc4c3C)cc2)CC1 (stereo partly drawn)", "pIC50": 8.10}
{"molecule": "O=C(Nc1nccs1)C(c1ncn2c1C[C@@H](F)C2)n1cc2c(Cl)cc(-c3ccc(N4CCOCC4)cc3)c(C(F)F)c2n1 (mixture of isomers)", "pIC50": 8.10}
{"molecule": "CCN1C[C@@H]2CN(c3ccc(-c4cc(Cl)c5cn(C(C(=O)Nc6nccs6)c6ncn7c6C[C@@H](F)C7)nc5c4Cl)cc3)C[C@@H]2C1 (stereo partly drawn)", "pIC50": 8.05}
{"molecule": "Cc1cc(-c2ccc(OCCN3CCC(CO)CC3)cc2)c(Cl)c2nn(C(C(=O)Nc3nccs3)c3ncn4c3C[C@@H](F)C4)cc12 (mixture of isomers)", "pIC50": 8.15}
{"molecule": "O=C(Nc1nccs1)C(c1ncn2c1C[C@@H](F)C2)n1cc2c(Cl)cc(-c3ccc(CN4CC5(CC(O)C5)C4)cc3)c(Cl)c2n1 (mixture of isomers)", "pIC50": 8.10}
{"molecule": "O=C(Nc1nccs1)C(c1ncn2c1C[C@@H](F)C2)n1cc2c(Cl)cc(-c3ccc(C45CC(CN6CCC(CO)CC6)(C4)C5)cc3)c(Cl)c2n1 (mixture of isomers)", "pIC50": 7.92}
{"molecule": "CCN1CC[C@@H](c2ccc(-c3cc(C)c4cn(C(C(=O)Nc5nccs5)c5ncn6c5C[C@@H](F)C6)nc4c3Cl)cc2)[C@H](F)C1 (single isomer, unassigned)", "pIC50": 8.00}

* * *

biological target: EGFR TMLRCS (Homo sapiens, UniProt P00533, C797S/L858R/T790M); assay: HTRF Phospho EGFR TMLRCS Assay (Cellular); conditions: BaF3-TMLRCS cell line, 4 hours incubation, Phospho-EGFR HTRF readout
pIC50: −log10 of the molar value.
Catalogue of pIC50 values

{"molecule": "CN(Cc1ccc(-c2cc(Cl)c3cn(C(C(=O)Nc4nccs4)c4ncn5c4C[C@@H](F)C5)nc3c2Cl)cc1)C1CCCC(O)C1 (mixture of isomers)", "experimentalTarget": "EGFR TMLRCS (Homo sapiens, UniProt P00533, C797S/L858R/T790M)", "pIC50": 8.22}
{"molecule": "O=C(Nc1nccs1)C(c1ncn2c1C[C@@H](F)C2)n1cc2c(Cl)cc(-c3ccc(CN4C[C@H]5COC[C@H]5C4)cc3)c(Cl)c2n1 (mixture of isomers)", "experimentalTarget": "EGFR TMLRCS (Homo sapiens, UniProt P00533, C797S/L858R/T790M)", "pIC50": 8.22}
{"molecule": "CCN1CC[C@@H](c2ccc(-c3cc(Cl)c4cn(C(C(=O)Nc5nccs5)c5ncn6c5C[C@@H](F)C6)nc4c3Cl)cc2)[C@H](F)C1 (mixture of isomers)", "experimentalTarget": "EGFR TMLRCS (Homo sapiens, UniProt P00533, C797S/L858R/T790M)", "pIC50": 8.00}

* * *

target: EGFR TMLRCS (Homo sapiens, UniProt P00533, C797S/L858R/T790M); test: HTRF Phospho EGFR TMLRCS Assay (Cellular); conditions: BaF3-TMLRCS cell line, 4 hours incubation, Phospho-EGFR HTRF readout
pIC50: −log10 of the molar value.
We use 8 as the dividing line for pIC50: on or above the line is condition met, below is condition not met.

{"molecule": "O=C(Nc1nccs1)C(c1ncn2c1C[C@@H](F)C2)n1cc2c(Cl)cc(-c3ccc(CN4CCC(CCO)CC4)cc3)c(Cl)c2n1 (some centres unmarked)", "className": "condition met"}
{"molecule": "O=C(Nc1nccs1)C(c1ncn2c1C[C@@H](F)C2)n1cc2c(Cl)cc(-c3ccc(N4CCN(C5CC(O)C5)CC4)cc3)c(Cl)c2n1 (mixture of isomers)", "className": "condition met"}
{"molecule": "O=C(Nc1nccs1)C(c1ncn2c1CCC2)n1cc2c(Cl)cc(-c3ccc(C4CCN(CCF)CC4)cc3)c(Cl)c2n1 (centres unmarked)", "className": "condition not met"}

* * *

target: EGFR TMLRCS (Homo sapiens, UniProt P00533, C797S/L858R/T790M); experiment: HTRF Phospho EGFR TMLRCS Assay (Cellular); details: BaF3-TMLRCS cell line, 4 hours incubation, Phospho-EGFR HTRF readout
recordedMetric: IC50 (nM)

{"compound": "O=C(Nc1nccs1)C(c1ncn2c1C[C@@H](F)C2)n1cc2c(Cl)cc(-c3ccc(C4CC(CN5CCC(CO)CC5)C4)cc3)c(Cl)c2n1 (mixture of isomers)", "unitAbbreviation": "nM", "testValue": 8}
{"compound": "N#Cc1cc(-c2cc(Cl)c3cn(C(C(=O)Nc4nccs4)c4ncn5c4C[C@@H](F)C5)nc3c2Cl)ccc1N1CCOCC1 (mixture of isomers)", "unitAbbreviation": "nM", "testValue": 9}
{"compound": "O=C(Nc1nccs1)C(c1ncn2c1C[C@@H](F)C2)n1cc2c(Cl)cc(-c3ccc(CCN4CCC(O)CC4)cc3)c(Cl)c2n1 (mixture of isomers)", "unitAbbreviation": "nM", "testValue": 7}
{"compound": "O=C(Nc1nccs1)C(c1ncn2c1C[C@@H](F)C2)n1cc2c(Cl)cc(-c3ccc(OCCN4CCCC4)cc3)c(Cl)c2n1 (some centres unmarked)", "unitAbbreviation": "nM", "testValue": 12}
{"compound": "CN(CCN1CC(O)C1)c1ccc(-c2cc(Cl)c3cn(C(C(=O)Nc4nccs4)c4ncn5c4C[C@@H](F)C5)nc3c2Cl)cc1 (some centres unmarked)", "unitAbbreviation": "nM", "testValue": 12}
{"compound": "CC(O)C1CCN(CCc2ccc(-c3cc(Cl)c4cn(C(C(=O)Nc5nccs5)c5ncn6c5C[C@@H](F)C6)nc4c3Cl)cc2)CC1 (mixture of isomers)", "unitAbbreviation": "nM", "testValue": 9}
{"compound": "CN1CCN(Cc2ccc(-c3cc(Cl)c4cn(C(C(=O)Nc5nccs5)c5ncn6c5C[C@@H](F)C6)nc4c3Cl)cc2)CC1 (mixture of isomers)", "unitAbbreviation": "nM", "testValue": 6}
{"compound": "O=C(Nc1nccs1)C(c1ncn2c1C[C@@H](F)C2)n1cc2c(Cl)cc(-c3ccc([C@@H]4CCN(C5CC(O)C5)C[C@H]4F)cc3)c(Cl)c2n1 (single isomer, unassigned)", "unitAbbreviation": "nM", "testValue": 5}

* * *

molecular target: EGFR TMLRCS (Homo sapiens, UniProt P00533, C797S/L858R/T790M); assay: HTRF Phospho EGFR TMLRCS Assay (Cellular); details: BaF3-TMLRCS cell line, 4 hours incubation, Phospho-EGFR HTRF readout
pIC50: −log10 of the molar value.
Catalogue of pIC50 values
recordedMetric: pIC50

{"molecule": "CN(C)CCOc1ccc(-c2cc(Cl)c3cn(C(C(=O)Nc4nccs4)c4ncn5c4C[C@@H](F)C5)nc3c2Cl)cc1 (mixture of isomers)", "experimentalTarget": "EGFR TMLRCS (Homo sapiens, UniProt P00533, C797S/L858R/T790M)", "recordedMetric": "pIC50", "testValue": 8.22}
{"molecule": "O=C(Nc1nccs1)C(c1ncn2c1C[C@@H](F)C2)n1cc2c(Cl)cc(-c3ccc(CN4CC5(COC5)C4)cc3)c(Cl)c2n1 (mixture of isomers)", "experimentalTarget": "EGFR TMLRCS (Homo sapiens, UniProt P00533, C797S/L858R/T790M)", "recordedMetric": "pIC50", "testValue": 8.30}
{"molecule": "CCN1CCC(c2ccc(-c3cc(Cl)c4cn(C(C(=O)Nc5nccs5)c5ncn6c5C[C@@H](F)C6)nc4c3)cc2)CC1 (mixture of isomers)", "experimentalTarget": "EGFR TMLRCS (Homo sapiens, UniProt P00533, C797S/L858R/T790M)", "recordedMetric": "pIC50", "testValue": 8.05}
{"molecule": "CCN(CC)CC1(c2ccc(-c3cc(C)c4cn(C(C(=O)Nc5nccs5)c5ncn6c5C[C@@H](F)C6)nc4c3C)cc2)CC1 (stereo partly drawn)", "experimentalTarget": "EGFR TMLRCS (Homo sapiens, UniProt P00533, C797S/L858R/T790M)", "recordedMetric": "pIC50", "testValue": 7.72}
{"molecule": "O=C(Nc1nccs1)C(c1ncn2c1C[C@@H](F)C2)n1cc2c(Cl)cc(-c3cnc(N4CCOCC4)nc3)c(Cl)c2n1 (stereo partly drawn)", "experimentalTarget": "EGFR TMLRCS (Homo sapiens, UniProt P00533, C797S/L858R/T790M)", "recordedMetric": "pIC50", "testValue": 8.30}
{"molecule": "CCN1CCC(c2ccc(-c3cc(Cl)c4cn(C(C(=O)Nc5nccs5)c5ncn6c5CCC6)nc4c3Cl)cc2)CC1 (stereo not drawn)", "experimentalTarget": "EGFR TMLRCS (Homo sapiens, UniProt P00533, C797S/L858R/T790M)", "recordedMetric": "pIC50", "testValue": 7.92}
{"molecule": "CCN1CCC(c2ccc(-c3cc(C)c4cn(C(C(=O)Nc5nccs5)c5ncn6c5C[C@@H](F)C6)nc4c3C)cc2)CC1 (stereo partly drawn)", "experimentalTarget": "EGFR TMLRCS (Homo sapiens, UniProt P00533, C797S/L858R/T790M)", "recordedMetric": "pIC50", "testValue": 7.82}
{"molecule": "O=C(Nc1nccs1)C(c1ncn2c1C[C@@H](F)C2)n1cc2c(Cl)cc(-c3ccc([C@@H]4CCN(CCO)C[C@H]4F)cc3)c(Cl)c2n1 (single isomer, unassigned)", "experimentalTarget": "EGFR TMLRCS (Homo sapiens, UniProt P00533, C797S/L858R/T790M)", "recordedMetric": "pIC50", "testValue": 8.30}
{"molecule": "COCCNCCc1ccc(-c2cc(Cl)c3cn(C(C(=O)Nc4nccs4)c4ncn5c4C[C@@H](F)C5)nc3c2Cl)cc1 (mixture of isomers)", "experimentalTarget": "EGFR TMLRCS (Homo sapiens, UniProt P00533, C797S/L858R/T790M)", "recordedMetric": "pIC50", "testValue": 8.00}
{"molecule": "O=C(Nc1nccs1)C(c1ncn2c1C[C@@H](F)C2)n1cc2c(Cl)cc(-c3ccc(N4CC5(CCNCC5)C4)cc3)c(Cl)c2n1 (stereo partly drawn)", "experimentalTarget": "EGFR TMLRCS (Homo sapiens, UniProt P00533, C797S/L858R/T790M)", "recordedMetric": "pIC50", "testValue": 8.40}
{"molecule": "O=C(Nc1nccs1)C(c1ncn2c1C[C@@H](F)C2)n1cc2c(Cl)cc(-c3ccc(CCCN4CCC(CO)CC4)cc3)c(Cl)c2n1 (mixture of isomers)", "experimentalTarget": "EGFR TMLRCS (Homo sapiens, UniProt P00533, C797S/L858R/T790M)", "recordedMetric": "pIC50", "testValue": 8.10}
{"molecule": "CN(CCN1CCC(O)CC1)c1ccc(-c2cc(Cl)c3cn(C(C(=O)Nc4nccs4)c4ncn5c4C[C@@H](F)C5)nc3c2Cl)cc1 (stereo partly drawn)", "experimentalTarget": "EGFR TMLRCS (Homo sapiens, UniProt P00533, C797S/L858R/T790M)", "recordedMetric": "pIC50", "testValue": 8.10}
{"molecule": "O=C(Nc1nccs1)C(c1ncn2c1C[C@@H](F)C2)n1cc2c(Cl)cc(-c3ccc(C4CCN(CCF)CC4)cc3)c(Cl)c2n1 (stereo partly drawn)", "experimentalTarget": "EGFR TMLRCS (Homo sapiens, UniProt P00533, C797S/L858R/T790M)", "recordedMetric": "pIC50", "testValue": 8.15}
{"molecule": "Cc1cc(-c2ccc(N3CCOCC3)cc2)c(Cl)c2nn(C(C(=O)Nc3nccs3)c3ncn4c3CCC4)cc12 (stereo not drawn)", "experimentalTarget": "EGFR TMLRCS (Homo sapiens, UniProt P00533, C797S/L858R/T790M)", "recordedMetric": "pIC50", "testValue": 8.05}
{"molecule": "Cc1cc(-c2ccc(N3CCOCC3)nc2)c(C)c2nn(C(C(=O)Nc3nccs3)c3ncn4c3C[C@@H](F)C4)cc12 (stereo partly drawn)", "experimentalTarget": "EGFR TMLRCS (Homo sapiens, UniProt P00533, C797S/L858R/T790M)", "recordedMetric": "pIC50", "testValue": 8.30}
